Where do these numbers come from? They come from patent US20250223358A1.

# targetUnderTest: human CD3 (human, UniProt P07766 23-207; P04234 22-171; P09693 23-182)
# Sequence (P07766 23-207, chain 1 of 3): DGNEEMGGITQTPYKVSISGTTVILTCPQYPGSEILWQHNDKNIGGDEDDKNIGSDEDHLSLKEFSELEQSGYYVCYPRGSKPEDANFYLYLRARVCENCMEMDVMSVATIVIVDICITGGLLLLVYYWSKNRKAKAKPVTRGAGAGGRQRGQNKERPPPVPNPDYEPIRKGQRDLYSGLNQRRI
# Sequence (P04234 22-171, chain 2 of 3): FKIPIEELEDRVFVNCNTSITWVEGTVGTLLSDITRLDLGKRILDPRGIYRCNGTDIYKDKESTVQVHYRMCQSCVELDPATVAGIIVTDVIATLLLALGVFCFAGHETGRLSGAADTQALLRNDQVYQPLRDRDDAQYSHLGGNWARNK
# Sequence (P09693 23-182, chain 3 of 3): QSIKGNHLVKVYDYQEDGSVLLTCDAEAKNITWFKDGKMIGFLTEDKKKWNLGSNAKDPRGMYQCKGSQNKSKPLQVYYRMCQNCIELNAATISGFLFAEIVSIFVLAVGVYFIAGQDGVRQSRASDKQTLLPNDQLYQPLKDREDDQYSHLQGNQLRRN
# testProtocol: cell-based or functional assay
experimentalReadout: EC50 (Jurkat-NFAT-luciferase activation) (nM)
The reply should contain only the number, in nM.

Study these solved cases before continuing.
{"binder": "ch124E3D6 (antibody, V domains shown) VH: QVQLQQPGTELVKPGASVKLSCKASGYTFTSYWMHWVKQRPGQGLEWIGNINPSNGDTNYNEKFKSKATLTVDKSSSTAYMQLSSLTSEDSAVYYCARDRSSQYYFDYWGQGTTLTVSS VL: DIVMSQSPSSLAVSAGEKVTMSCKSSQSLLNSRTRKNYLAWYQQKPGQSPKLLIYWASTRESGVPDRFTGSGSGTDFTLTISSVQAEDLAVYYCKQSYNLRTFGGGTKLEIK", "unitText": "nM", "EC50 (Jurkat-NFAT-luciferase activation)": 32.4}
{"binder": "ch126A11A4 (antibody, V domains shown) VH: QVQLQQPGTELVKPGASVKLSCKASGYTFTSYWMHWVKQRPEQGLEWIGNINPSNGDTNYNEKFKSKATLTVDKASNTAYMQLSSLTSEDSAVYYCGRDRSSQYYFDYWGQGTTLTVSS VL: DIVMSQSPSSLAVSAGEKVTMSCKSSQSLLNSRTRKNYLAWYQQKPGQSPKLLIYWASTRESGVPDRFTGSGSGTDFTLTISSVQAEDLAVYFCKQSFILRTFGGGTKLEIK", "unitText": "nM", "EC50 (Jurkat-NFAT-luciferase activation)": 33.6}
{"binder": "ch127E2D3 (antibody, V domains shown) VH: QVQLQQPGTELVKPGASVKLSCKASGYTFTSYWMHWVKQRPGEGLEWIGNIYPGSSSINYNEKFKSKATLTVDKSSSTAYMQLSSLTSEDSAVYYCARDRSSQYYFDYWGQGTTLTVSS VL: DIVMSQSPSSLAVSAGEKVTMSCKSSQSLLNSRTRKNYLAWYQQKPGQSPKLLIYWASTRESGVPDRFTGSGSGTDFTLTISSVQAEDLAVYYCTQSYNLRTFGGGTKLEIK", "unitText": "nM", "EC50 (Jurkat-NFAT-luciferase activation)": 61.7}

Now consider the entry below.
Complete the entry with EC50 (Jurkat-NFAT-luciferase activation) for ch147E11E2 (antibody, V domains shown) VH: QVQLQQPGTELVKPGTSVKLSCKASGYTFTSYWMHWVKQRPGQGLEWIGNINPSNGATNYNEKFKSKATLTVDKSSSTAYMQLSSLTSEDSAVYYCARDRSSQYYFDYWGQGTTLTVSS VL: DIVMSQSPSSLAVSAGEKVTMSCKSSQSLLNSRSRKNYLAWYQQKPGQSPKLLIYWASTRESGVPDRFTGSGSGTDFTLTISSVQAEDLAVYYCTQSYTLRTFGGGTKLEIK
33
